Test: activity coefficient (dimensionless); of the first substance listed, at infinite dilution; xn = mol fraction of the nth substance listed
Conditions: 323.15 K; Liquid; Chromatography; x1 = 0
Category key, based on recorded activity coefficient: low (below 0.7), mid (0.7 to below 6), high (6 or more)

* ClC(Cl)Cl [trichloromethane] + CCCCCCCCn1cc[n+](COCCCOC[n+]2ccn(CCCCCCCC)c2C)c1C.N#C[N-]C#N.N#C[N-]C#N | low
* CCC(C)CC [3-methylpentane] + CCCCCCCCn1cc[n+](COCCCOC[n+]2ccn(CCCCCCCC)c2C)c1C.O=S(=O)([N-]S(=O)(=O)C(F)(F)F)C(F)(F)F.O=S(=O)([N-]S(=O)(=O)C(F)(F)F)C(F)(F)F | mid
* CCCO [propan-1-ol] + CN(C)c1cc[n+](COCCCOC[n+]2ccc(N(C)C)cc2)cc1.O=S(=O)([N-]S(=O)(=O)C(F)(F)F)C(F)(F)F.O=S(=O)([N-]S(=O)(=O)C(F)(F)F)C(F)(F)F | mid
* CCCCCCCCC [nonane] + CCCOC[n+]1ccn(Cc2ccccc2)c1.N#C[N-]C#N | high
* CCC(C)=O [butanone] + CCCOC[n+]1ccn(Cc2ccccc2)c1.O=S(=O)([N-]S(=O)(=O)C(F)(F)F)C(F)(F)F | low
* C1CCCCCC1 [cycloheptane] + CCCCCCCCn1cc[n+](COCCC)c1C.O=S(=O)([N-]S(=O)(=O)C(F)(F)F)C(F)(F)F | high
* ClC(Cl)Cl [trichloromethane] + CCCCCCCCn1cc[n+](COCCC)c1C.N#C[N-]C#N | low
* CCN(CC)CC [triethylamine] + CCCOC[n+]1ccn(Cc2ccccc2)c1.N#C[N-]C#N | high
* Cc1ccccc1 [toluene] + CN(C)c1cc[n+](COCCCOC[n+]2ccc(N(C)C)cc2)cc1.O=S(=O)([N-]S(=O)(=O)C(F)(F)F)C(F)(F)F.O=S(=O)([N-]S(=O)(=O)C(F)(F)F)C(F)(F)F | mid
* CCCCO [butan-1-ol] + CCCCCCCCn1cc[n+](COCCCOC[n+]2ccn(CCCCCCCC)c2C)c1C.O=S(=O)([N-]S(=O)(=O)C(F)(F)F)C(F)(F)F.O=S(=O)([N-]S(=O)(=O)C(F)(F)F)C(F)(F)F | mid

FYI, the data here is from the NIST ThermoML archive (doi:10.1016/j.fluid.2014.11.020).
